Measured koff of individual entries
Study system: SARS-CoV-2 spike (S) protein (SARS-CoV-2, UniProt P0DTC2 14-1208)

Binder: antibody 308 (antibody, V domains shown) VH: QLQLQESGPGLVKPSETLSLTCSVSGGSISSSSYHWGWIRQPPGKGLEWIGSIYYSGSTYYNPSLKSRVTISVDTSKNQFSLKLRSVTAADTAVYYCAGLRVVITFGGVIPKGGAFDIWGQGTMVTVSS VL: QSALTQPASVSGSPGQSITISCTGTSSDVGGYNYVSWYQQHPGKAPKLMIYDVSNRPSGVSNRFSGSKSGNTASLTISGLQAEDEADYYCSSYTSSSTVVFGGGTKLTVL
koff [s⁻¹]: 6.89e-05
//
Binder: antibody 336 (antibody, V domains shown) VH: QVQLVESGGGVVQPGRSLRLSCAASGFTFSSYAMHWVRQAPGKGLEWVAVISYDGSNKYYADSVKGRFTISRDNSKNTLYLQMNSLRAEDTAVYYCARAQTDYYDSSGWFDYWGQGTLVTVSS VL: SYELTQPPSVSVSPGQTARITCSGDALPKQYAYWYQQKPGQAPVLVIYKDSERPSGIPERFSGSSSGTTVTLTISGVQAEDEADYYCQSADSSGTPHWVFGGGTKLTVL
koff [s⁻¹]: 0.00021
//
Binder: antibody 261 (antibody, V domains shown) VH: QVQLVESGGGVVQPGRSLRLSCAASGFTFSSYAMHWVRQAPGKGLEWVAVISYDGSNKYYADSVKGRFTISRDNSKNTLYLQMNSLRAEDTAVYYCARDEAYYDILTGYINAPKNYYYYGMDVWGQGTTVTVSS VL: DIQMTQSPSSLSASVGDRVTITCRASQGIRNDLGWYQQKPGKAPKRLIYAASSLQSGVPSRFSGSGSGTEFTLTISSLQPEDFATYYCLQHNSYPFTFGPGTKVDIK
koff [s⁻¹]: 0.000695
